- System name: T1, human RANK-L (human, UniProt O14788 140-317, limits assumed)
- T1 construct: Soluble protein, used coated, biotinylated or labelled in ELISA, AlphaScreen, FMAT and Biacore; also called hRANK-L; soluble human RANK-L
- T1 sequence (looked up): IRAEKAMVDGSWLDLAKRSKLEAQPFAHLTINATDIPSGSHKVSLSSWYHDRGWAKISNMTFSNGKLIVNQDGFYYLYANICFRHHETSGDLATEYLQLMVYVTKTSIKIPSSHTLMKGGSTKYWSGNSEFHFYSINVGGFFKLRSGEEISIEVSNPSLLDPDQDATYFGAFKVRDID
- Protocol: FMAT, ALEXA647-hRANK-L / RANK on HEK293T cells
pIC50: −log10 of the molar value.
Please enter y where pIC50 is greater than or equal to 10, and n where it is lower.

Prompt line: Assess whether reported pIC50 for RANKL92biv (VHH, Bivalent Nanobody; also called RANKL9-20GS-RANKL9) EVQLVESGGGLVQAGGSLRLTCAASGRTFRSYAMGWFRQAPGKEREFVAAINYSGGSTNYADSVKGRFTISRDNAKNTLYLQMNSLEPEDTAVYYCAAGSGYASLSYYSTERAYTYWGQGTQVTVSSGGGGSGGGGSGGGGSGGGGSEVQLVESGGGLVQAGGSLRLTCAASGRTFRSYAMGWFRQAPGKEREFVAAINYSGGSTNYADSVKGRFTISRDNAKNTLYLQMNSLEPEDTAVYYCAAGSGYASLSYYSTERAYTYWGQGTQVTVSS sits at 10 or higher.
Response line: y

Prompt line: Decide: is the reported value of pIC50 for RANKL131 (VHH, Bivalent Nanobody; also called RANKL13-9GS-RANKL13) EVQLVESGGGLVQAGGSLRLSCAASGRTFRSYPMGWFRQAPGKEREFVASITGSGGSTYYADSVKGRFTISRDNAKNTVYLQMNSLRPEDTAVYSCAAYIRPDTYLSRDYRKYDYWGQGTQVTVSSGGGGSGGGSEVQLVESGGGLVQAGGSLRLSCAASGRTFRSYPMGWFRQAPGKEREFVASITGSGGSTYYADSVKGRFTISRDNAKNTVYLQMNSLRPEDTAVYSCAAYIRPDTYLSRDYRKYDYWGQGTQVTVSS equal to or greater than 10?
Response line: y

Prompt line: Quick check: does RANKL94biv (VHH, Bivalent Nanobody; also called RANKL9-15GS-RANKL9) EVQLVESGGGLVQAGGSLRLTCAASGRTFRSYAMGWFRQAPGKEREFVAAINYSGGSTNYADSVKGRFTISRDNAKNTLYLQMNSLEPEDTAVYYCAAGSGYASLSYYSTERAYTYWGQGTQVTVSSGGGGSGGGGSGGGGSEVQLVESGGGLVQAGGSLRLTCAASGRTFRSYAMGWFRQAPGKEREFVAAINYSGGSTNYADSVKGRFTISRDNAKNTLYLQMNSLEPEDTAVYYCAAGSGYASLSYYSTERAYTYWGQGTQVTVSS have pIC50 greater than or equal to 10?
Response line: y

Prompt line: Is pIC50 for RANKL13 (VHH, not shown: small tags and cut ends) VHH: EVQLVESGGGLVQAGGSLRLSCAASGRTFRSYPMGWFRQAPGKEREFVASITGSGGSTYYADSVKGRFTISRDNAKNTVYLQMNSLRPEDTAVYSCAAYIRPDTYLSRDYRKYDYWGQGTQVTVSS at or above 10?
Response line: n

Prompt line: Tell me whether pIC50 is at least 10 here: RANKL18hum6Bi_30 (VHH, Bivalent humanized Nanobody; also called RANKL18Hum6-30GS-RANKL18Hum6) EVQLVESGGGLVQPGGSLRLSCAASGRTFSRSAMGWFRQAPGKGREFVGFITGSGGTTYYADSVKGRFTISRDNAQNPVYLQMNSLRPEDTAVYYCAVYRRTYISSTYSESSEYDYWGQGTLVTVSSGGGGSGGGGSGGGGSGGGGSGGGGSGGGGSEVQLVESGGGLVQPGGSLRLSCAASGRTFSRSAMGWFRQAPGKGREFVGFITGSGGTTYYADSVKGRFTISRDNAQNPVYLQMNSLRPEDTAVYYCAVYRRTYISSTYSESSEYDYWGQGTLVTVSS
Response line: y
